Target: flt-1 VEGF receptor AP fusion protein (Homo sapiens, UniProt P17948)
Construct: soluble VEGF receptor flt-1-AP fusion protein
Sequence (P17948 27-758 limits assumed): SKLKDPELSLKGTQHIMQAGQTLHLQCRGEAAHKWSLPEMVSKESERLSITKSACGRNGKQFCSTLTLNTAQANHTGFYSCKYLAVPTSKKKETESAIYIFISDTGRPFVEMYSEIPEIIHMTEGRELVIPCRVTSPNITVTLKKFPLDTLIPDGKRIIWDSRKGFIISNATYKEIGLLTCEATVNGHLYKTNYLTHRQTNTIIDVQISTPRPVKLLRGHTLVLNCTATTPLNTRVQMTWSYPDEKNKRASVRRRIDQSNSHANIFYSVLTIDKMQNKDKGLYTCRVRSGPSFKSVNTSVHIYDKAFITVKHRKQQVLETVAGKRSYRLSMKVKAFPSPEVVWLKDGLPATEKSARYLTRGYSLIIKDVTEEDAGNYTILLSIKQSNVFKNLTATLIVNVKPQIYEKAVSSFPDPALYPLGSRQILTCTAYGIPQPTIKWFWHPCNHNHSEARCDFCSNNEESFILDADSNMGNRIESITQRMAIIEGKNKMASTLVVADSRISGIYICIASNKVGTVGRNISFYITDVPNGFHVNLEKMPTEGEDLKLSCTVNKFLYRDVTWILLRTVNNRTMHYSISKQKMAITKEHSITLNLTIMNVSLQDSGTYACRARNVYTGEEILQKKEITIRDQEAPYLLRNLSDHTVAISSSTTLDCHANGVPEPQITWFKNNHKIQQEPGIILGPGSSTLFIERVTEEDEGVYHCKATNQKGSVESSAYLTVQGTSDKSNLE
Assay: Binding of soluble VEGF receptor flt-1-AP fusion protein to immobilized VEGF
Settings: FIG. 10B; read-out: IC50, inhibition of flt-1-AP binding to immobilized VEGF
property: IC50

Q. Return IC50 measured with flt-1 VEGF receptor AP fusion protein (Homo sapiens, UniProt P17948) given this molecule: C[n+]1ccc(-c2c3nc(c(-c4cc[n+](C)cc4)c4ccc([nH]4)c(-c4cc[n+](C)cc4)c4nc(c(-c5cc[n+](C)cc5)c5ccc2[nH]5)C=C4)C=C3)cc1 [Compound P1]
A. ~40 nM

* * *

Biological target: FGFR-1 (Mus musculus, UniProt P16092)
Sequence (P16092 22-822): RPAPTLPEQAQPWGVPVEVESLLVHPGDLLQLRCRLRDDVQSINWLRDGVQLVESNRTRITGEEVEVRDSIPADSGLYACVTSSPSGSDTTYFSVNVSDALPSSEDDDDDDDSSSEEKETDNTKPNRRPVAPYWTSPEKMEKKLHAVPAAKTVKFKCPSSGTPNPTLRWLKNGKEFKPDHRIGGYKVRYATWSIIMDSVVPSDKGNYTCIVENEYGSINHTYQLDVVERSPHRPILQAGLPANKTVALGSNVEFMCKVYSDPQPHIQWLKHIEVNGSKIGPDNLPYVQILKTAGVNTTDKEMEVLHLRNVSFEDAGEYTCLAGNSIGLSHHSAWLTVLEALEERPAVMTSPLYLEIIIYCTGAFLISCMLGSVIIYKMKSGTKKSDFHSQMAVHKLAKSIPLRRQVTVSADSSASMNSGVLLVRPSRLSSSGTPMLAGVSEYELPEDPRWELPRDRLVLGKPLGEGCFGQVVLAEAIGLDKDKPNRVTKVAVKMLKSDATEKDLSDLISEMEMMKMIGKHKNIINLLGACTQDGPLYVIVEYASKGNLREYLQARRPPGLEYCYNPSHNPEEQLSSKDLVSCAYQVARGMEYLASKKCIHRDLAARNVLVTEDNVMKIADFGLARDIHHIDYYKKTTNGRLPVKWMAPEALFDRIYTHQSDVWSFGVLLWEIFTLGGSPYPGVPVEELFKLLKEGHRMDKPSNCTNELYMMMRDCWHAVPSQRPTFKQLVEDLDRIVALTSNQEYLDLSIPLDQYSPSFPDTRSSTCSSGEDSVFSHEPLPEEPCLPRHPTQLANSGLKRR
Experiment: Binding of 125I-bFGF to CHO cells expressing FGFR-1
Settings: read-out: Cellular receptor binding (IC50); binding of FGF to FGFR; Methods section (iv)
property: pIC50
Remember the convention: pIC50 equals -log10 of concentration in molar.

Q. Return pIC50 measured with FGFR-1 (Mus musculus, UniProt P16092) given this compound: C[n+]1ccc(-c2c3nc(c(-c4cc[n+](C)cc4)c4ccc([nH]4)c(-c4c(F)c(F)c(F)c(F)c4F)c4nc(c(-c5cc[n+](C)cc5)c5ccc2[nH]5)C=C4)C=C3)cc1.[I-].[I-].[I-]
A. 7.70

Q. C[n+]1ccc(C2=Cc3cc4[nH]c(cc5nc(cc6[nH]c(cc2n3)cc6-c2cc[n+](C)cc2)C=C5c2cc[n+](C)cc2)cc4-c2cc[n+](C)cc2)cc1 , same question.
A. 5.72

Q. C[n+]1ccc(-c2c3nc(c(-c4cc[n+](C)cc4)c4ccc([nH]4)c(-c4c(F)c(F)c(NCCCN)c(F)c4F)c4nc(c(-c5cc[n+](C)cc5)c5ccc2[nH]5)C=C4)C=C3)cc1 , same question.
A. 5.70

Q. C[N+](C)(C)c1c(F)c(F)c(-c2c3nc(c(-c4c(F)c(F)c([N+](C)(C)C)c(F)c4F)c4ccc([nH]4)c(-c4c(F)c(F)c([N+](C)(C)C)c(F)c4F)c4nc(c(-c5c(F)c(F)c([N+](C)(C)C)c(F)c5F)c5ccc2[nH]5)C=C4)C=C3)c(F)c1F.O=S(=O)([O-])C(F)(F)F.O=S(=O)([O-])C(F)(F)F.O=S(=O)([O-])C(F)(F)F.O=S(=O)([O-])C(F)(F)F , same question.
A. 6.92

* * *

Biological target: FGFR-1 alkaline phosphatase fusion protein (FRAP) (Mus musculus, UniProt P16092)
Construct: soluble FGFR-1 ectodomain alkaline phosphatase fusion protein (FRAP); made in house; host or cells: NIH 3T3 cells (conditioned medium)
Sequence (P16092 22-376 limits assumed): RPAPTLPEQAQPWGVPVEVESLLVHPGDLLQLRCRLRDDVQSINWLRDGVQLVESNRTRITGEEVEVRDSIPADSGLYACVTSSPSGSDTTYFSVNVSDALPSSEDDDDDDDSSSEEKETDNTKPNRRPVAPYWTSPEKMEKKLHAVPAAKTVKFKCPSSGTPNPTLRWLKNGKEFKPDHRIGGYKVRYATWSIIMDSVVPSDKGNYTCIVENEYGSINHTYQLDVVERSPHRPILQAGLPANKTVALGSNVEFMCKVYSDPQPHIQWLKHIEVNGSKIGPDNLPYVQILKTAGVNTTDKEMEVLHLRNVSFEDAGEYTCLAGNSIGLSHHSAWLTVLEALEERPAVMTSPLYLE
Assay: Binding of soluble FGFR-1 alkaline phosphatase fusion protein (FRAP) to bFGF immobilized on heparin (Screen AP assay)
Conditions: IC50, inhibition of binding of soluble FGFR-1 to bFGF immobilized on heparin, text of detailed description
property: pIC50
Remember the convention: pIC50 equals -log10 of concentration in molar.

Q. Return pIC50 measured with FGFR-1 alkaline phosphatase fusion protein (FRAP) (Mus musculus, UniProt P16092) given this compound: C[n+]1ccc(-c2c3nc(c(-c4cc[n+](C)cc4)c4ccc([nH]4)c(-c4cc[n+](C)cc4)c4nc(c(-c5cc[n+](C)cc5)c5ccc2[nH]5)C=C4)C=C3)cc1 [Compound P1]
A. 4.05

FYI, the data here is from patent US6730666B1.
